Quick list: growth per entry.
system: MALME-3M melanoma; experiment: NCI-60 one-dose screen, 48 h (100 = growth as untreated, 0 = no growth, -100 = all killed); details: 10 µM unless noted
This is part of a sample that, as a whole, favours compounds with a hit. Of some 83,000 tested, about 20% had one in any assay. The source made the active and inactive calls. How the source made its calls: active means growth percent below 10; inactive means the rest.
READOUT_TYPE: growth

1. Nc1c(C(=O)Nc2cccc3ccccc23)sc2nc3c(cc12)CCCCC3	75.7% (inactive)
2. O=C(CSC(=S)N1CCCCC1)Nc1ccccc1	101% (inactive)
3. COc1ccc2nc3nc4ccc[nH]c4cc3c2c1	90% (inactive)
4. CC(=O)O[C@@H]1C[C@]2(C)[C@H]3[C@H](O)C[C@@H]4C5=CC(C)(C)CC[C@]5(C)CC[C@@]4(C)[C@]3(C)CC[C@H]2C(C)(C)[C@H]1O	107% (inactive)
5. COc1cc(-c2csc(NC(=O)Nc3ccc(Cl)cc3)n2)cc(OC)c1OC	61.3% (inactive)

====

system: SNB-19 CNS; test: NCI-60 one-dose screen, 48 h; conditions: 10 µM unless noted
Compounds without any hit were thinned out: in the full panel of roughly 83,000, 20% have a hit. The source made the active and inactive calls. Rule for the calls: active = growth percent below 10; inactive = the rest.
Classes used: active, inactive

1. C#C[C@@]1(O)[C@@H](CO)O[C@@H](n2cc(Cl)c3c(N)ncnc32)[C@@H]1O	active
2. COc1ccc(C2=NN(c3ccc(S(N)(=O)=O)cc3)C(c3ccc(Cl)cc3)C2)c(O)c1 (stereo unspecified)	inactive
3. CCC[S@@](=O)c1ccc2nc(NC(=O)OC)[nH]c2c1	inactive
4. N#Cc1c(-c2ccc(F)cc2)nc(N/N=C/c2c[nH]c3ccccc23)nc1N1CCOCC1	inactive
5. N#Cc1ccc(N2Cc3cc(Cl)ccc3OC3=C2C(=O)N(Cc2ccc(F)cc2)C3=O)cc1	inactive
6. c1ccc(-c2n(Cc3ccc4ccccc4n3)cc[n+]2Cc2ccc3ccccc3n2)cc1	active
7. CCCCCCCc1n(Cc2ccc3ccccc3c2)c2ccccc2[n+]1Cc1ccc2ccccc2c1	active
8. CC1(c2ccccc2Cl)NC(=O)NC1=O (stereo unspecified)	inactive
9. O=c1[nH]nc(-c2ccccc2)c2sc(NC(=S)Nc3ccc(Cl)cc3)nc12	inactive
10. O=c1c2ccccc2n(CC(O)CN2CCCC2)c2c(Br)cccc12 (stereo unspecified)	inactive
11. C=C1C(=O)O[C@H]2[C@H]1CC/C(COC(=O)CCC(=O)OC/C1=C/CC[C@@]3(C)O[C@H]3[C@H]3OC(=O)C(=C)[C@@H]3CC1)=C\CC[C@@]1(C)O[C@@H]21	inactive

====

test system: UO-31 renal; test: NCI-60 one-dose screen, 48 h; details: 10 µM unless noted
Compounds without any hit were thinned out: in the full panel of roughly 83,000, 20% have a hit. Calls of active or inactive are those of the source. The calls were made as follows: active = growth percent below 10; inactive = the rest.
Classes used: T (active), F (inactive)

1. C#CC[C@@H]1C[C@]2(C)[C@H]3CC[C@@H]4[C@H]5[C@H](C(=C)C)CC[C@]5(C(=O)O)CC[C@@]4(C)[C@]3(C)CC[C@H]2C(C)(C)[C@H]1O	F
2. C[C@H]1[C@H](C)CC[C@]2(C(=O)OCCCC[P+](c3ccccc3)(c3ccccc3)c3ccccc3)CC[C@]3(C)C(=CC[C@@H]4[C@@]5(C)CC[C@H](OC(=O)C(Cl)Cl)C(C)(C)[C@@H]5CC[C@]43C)[C@H]12	T
3. C#CCN(CCCOc1ccc(Cl)cc1Cl)CCCSC(=O)CCCCCN1/C(=C\C=C2/CCCC(/C=C/C3=[N+](CCCCCC(=O)[O-])c4ccccc4C3(C)C)=C2Cl)C(C)(C)c2ccccc21	F
4. Cc1ccc(C(=O)O)o1	F
5. C#CCN1C(=O)c2ccccc2N(CC#C)C12CCN(Cc1cn(CC(=O)Nc3ccccc3C(N)=O)nn1)CC2	F
6. CN1CCN(CC#CCOC(=O)CNC(=O)[C@]23CCC(C)(C)C[C@H]2C2=CC[C@@H]4[C@@]5(C)CC[C@H](O)C(C)(C)[C@@H]5CC[C@@]4(C)[C@]2(C)CC3)CC1	F
7. Cc1c(Cl)cccc1NC(=O)c1sc2nc3c(cc2c1N)CCCCC3	F
8. COc1ccc2c(c1)OC13Oc4cc(OC)ccc4C=C1CCCCC3=C2	F

Hello, the source for this data is PubChem BioAssay (NCI), in case you need it.
